ASSAY_SUMMARY: compounds raising alpha-dystroglycan glycosylation – uHTS, Pro5-aDG cells, AlphaScreen, primary screen (AID 624168);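 note: Pro5 are CHO cells carrying HIG-tagged alpha-DG that lacks glycosylation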
STUDY_CONDITIONS: alpha-DG glycosylation AlphaScreen (IIH6), at 10 µM, 0% Pro5, 100% B10-LARGE cell signal
The whole screen tested about 360,000 compounds, of which about 800 (0.22%) were called active.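 Rule for the calls: active = activation of at least 8% versus controls, or a plate z-score of at least 8; inactive = the rest.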 The entries come from a sample that favours actives as a whole.
Outcomes: active, inactive

| COMPOUND | CLASS_ASSIGNMENT |
| --- | --- |
| O=C(OCC(=O)N1CCc2ccccc21)c1ccc([N+](=O)[O-])cc1 | inactive |
| O=c1ccc2cc(S(=O)(=O)N3CCN(c4ccccc4)CC3)ccc2o1 | active |
| OCC1OC(n2cnc3c(N4CCCC4)ncnc32)C(O)C1O (configuration not stated) | inactive |
| NC1=CC(=O)C(=O)c2cccnc21 | active |
| COc1ccccc1C1SCCN1C(=O)c1ccc([N+](=O)[O-])cc1 (configuration not stated) | active |
| Cc1cc(=O)oc(C)c1C(=O)NC1CC(C)(C)NC(C)(C)C1 | inactive |
| CNC1(c2nnnn2-c2c(C)cccc2C)CCOC(C)(C)C1 (configuration not stated) | inactive |
| Cc1ccc(C(=O)C(=S)N2CCOCC2)cc1 | inactive |
| Clc1ccc(-c2cc(C3CCNCC3)[nH]n2)c(Cl)c1 | active |
| C[N+]1(CC(O)COc2ccccc2)CCN(C(=O)c2ccc([N+](=O)[O-])cc2)CC1 (configuration not stated) | inactive |
| COCc1c(C(=O)OCC(=O)Nc2ccc(OC(F)F)cc2)oc2ccccc12 | inactive |
| CC(NCc1ccccc1OC1CCCC1)c1ccccc1 (configuration not stated) | inactive |
| CNC(=O)COc1ccc(S(=O)(=O)Nc2ccccc2)cc1 | inactive |
| CC(NC(=O)COC(=O)Cn1cc(C(F)(F)F)ccc1=O)c1ccccc1 (configuration not stated) | inactive |
| CCOc1ccc(C(=O)Nc2c3c(nn2-c2ccccc2)CS(=O)(=O)C3)cc1 | inactive |
| COc1ccccc1OCCn1c(SCC(N)=O)nc2ccccc21 | inactive |
| Cc1ccc(C(NC(=O)C2CCN(CCOc3ccc(Cl)cc3Cl)CC2)c2ccccn2)cc1 (configuration not stated) | inactive |
| O=S(=O)(Nc1ccc(O)c2ccccc12)c1ccc(OC(F)(F)F)cc1 | active |
| O=S(=O)(Nc1ccc(OC(F)(F)F)cc1)c1cccc2nonc12 | inactive |
| CCN(CC)C(=O)C1=C(C)N(Cc2ccc(OC)cc2)C(=O)C(CC(=O)NCc2ccco2)C1 (configuration not stated) | inactive |
| O=C(NC(c1ccc(Cl)cc1)c1cnccn1)C1CCN(Cc2ccc(Cl)cc2)CC1 (configuration not stated) | inactive |
| O=C(NC(c1ccc(-c2ccccc2)cc1)c1cnccn1)C1CCN(CCOc2ccc(Cl)cc2Cl)CC1 (configuration not stated) | active |
